Values compiled from patent US4742073A.

# test: physchem
# Assay type: physicochemical
# experimental_setup: buffer, pH 7.4
# From the text: The assays would allow a formation of isopilocarpine or isopilocarpic acid of 1% to be detected.
quantity_measured: half-life
Give the figure together with its unit, number first.

| smiles_input | result |
| --- | --- |
| CC[C@H](C(=O)OCc1ccc(Cl)cc1)[C@H](CO)Cc1cncn1C | 0.5 h |
| CC[C@H](C(=O)OCc1ccccc1)[C@H](CO)Cc1cncn1C | 0.833 h |
| CCCCOC(=O)[C@@H](CC)[C@H](CO)Cc1cncn1C | 13.7 h |

Moving on to the next compound.
Consider `CC[C@H](C(=O)OCc1ccc(C)cc1)[C@H](CO)Cc1cncn1C` . Its measured half-life is 1.28 h
